Tested on: biotinyl-Met-oxazolone
Test: self-aminoacylation, catalytic enhancement (BMO) (fold over background); higher = more active; k-Seq, kA / k0A0; sequences stand for … in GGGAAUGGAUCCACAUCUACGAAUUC…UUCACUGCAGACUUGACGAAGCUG
This sample holds only a part of the variants without activity.
Label satisfied when self-aminoacylation is at or above 2; otherwise label not satisfied.

                              sequence_text       system_under_test     class_name
0  AUUACCCUGCUGAUCGAGUGA [Fam2.1 aminoacylation ribozyme variant]  biotinyl-Met-oxazolone      satisfied
1  AUCACCCUGGUCAUCGAGUGG [Fam2.1 aminoacylation ribozyme variant]  biotinyl-Met-oxazolone      satisfied
2  AAGUUUGCAUAUAGUCGCAAG [Fam3.1 aminoacylation ribozyme variant]  biotinyl-Met-oxazolone  not satisfied
3  AUUCAUCUAGGUCACCGGGUG [Fam2.2 aminoacylation ribozyme variant]  biotinyl-Met-oxazolone      satisfied
4  CUAAUUCAAACAAUCGGUGUG [Fam1A.1 aminoacylation ribozyme variant]  biotinyl-Met-oxazolone  not satisfied
5  CCACACUUCAAGCAAUCAUUC [Fam1B.1 aminoacylation ribozyme variant]  biotinyl-Met-oxazolone  not satisfied
6  CCACAGUUCAGGCAAUCGGUC [Fam1B.1 aminoacylation ribozyme variant]  biotinyl-Met-oxazolone  not satisfied
7  AUUGCCCUGGUCACCGAGUGA [Fam2.1 aminoacylation ribozyme variant]  biotinyl-Met-oxazolone      satisfied
8  AUGUUUGCUAAUAGUCGCCAG [Fam3.1 aminoacylation ribozyme variant]  biotinyl-Met-oxazolone  not satisfied

Hello, the source for this data is the supplement of paper PMC9233669, in case you need it.
